B1: PhoQ; a variant is named by its letters at X, in order, P23837 (parent)
chain: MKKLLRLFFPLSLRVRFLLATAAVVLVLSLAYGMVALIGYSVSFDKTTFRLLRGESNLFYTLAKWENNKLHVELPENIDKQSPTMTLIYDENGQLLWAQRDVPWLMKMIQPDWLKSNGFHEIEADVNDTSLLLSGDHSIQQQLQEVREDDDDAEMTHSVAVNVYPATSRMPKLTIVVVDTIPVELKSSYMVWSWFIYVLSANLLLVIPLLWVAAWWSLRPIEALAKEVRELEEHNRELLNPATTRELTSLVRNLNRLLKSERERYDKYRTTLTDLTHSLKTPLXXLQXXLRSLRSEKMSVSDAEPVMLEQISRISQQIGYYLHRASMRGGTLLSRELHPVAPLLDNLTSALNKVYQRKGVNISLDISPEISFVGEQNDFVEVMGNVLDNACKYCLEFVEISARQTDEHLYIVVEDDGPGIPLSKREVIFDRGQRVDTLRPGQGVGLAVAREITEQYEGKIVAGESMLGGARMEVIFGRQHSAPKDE

Variants of: B1
assay.explanation: enrichment ratio after two sorts for PhoP signalling (ratio (wild type AVST 3.29)); higher = more functional
condition.description: with PhoP (E. coli)
In all, about 140,000 sequences were measured (“enrichment ratio after two sorts for PhoP signalling”: median about 0, highest 2% from about 11 on). The sample holds the highest values, similar sequences and a random draw of the others, so the mix is not that of the screen.
Entries and their enrichment ratio values follow.
Just the number, please, no unit attached.

Annotate the variant SNMV with its measured enrichment ratio. 18.5

Look up and state reported enrichment ratio for SNYV 0.433

Please list enrichment ratio recorded for the variant SNVA 6.33

Tell me measured enrichment ratio for SINK please. 1.25

Indicate the recorded enrichment ratio value for this variant: SNLI 11.3

Indicate its recorded enrichment ratio; the variant in question is SRLI 6.88

Give enrichment ratio for SNIV 9.73

Please list enrichment ratio recorded for the variant SNMR 1.49

Look up enrichment ratio of SNLT and report it. 7.56

Please supply the value of reported enrichment ratio for the item SNLS 11.5

The measured values listed here are drawn from a collection of fitness landscapes (doi:10.1126/science.1257360).
